// provenance: patent US6737383B1

Tested on: wheat
Test: Test B pre/postemergence wheat
Assay type: in vivo, Triticum aestivum
Settings: Rate 500 g/ha, Preemergence; scale 0 to 10 (0 no effect, 10 complete control)
REPORTED_ENDPOINT: Wheat plant response rating
Please give the numeric answer without any surrounding text.

Return reported Wheat plant response rating; argument: CC(C)N(C(=O)n1oc(=O)n(C(C)C2=NOCC2)c1=O)c1ccc(F)cc1 (racemic)
8

Return reported Wheat plant response rating; argument: CC(C)N(C(=O)n1oc(=O)n(CC2=NOCCO2)c1=O)c1ccc(Cl)cc1
3

Return reported Wheat plant response rating; argument: CCOC(CC)n1c(=O)on(C(=O)N(c2ccc(F)cc2F)C(C)C)c1=O (stereo not drawn)
0

Return reported Wheat plant response rating; argument: COC1CCC(Cn2c(=O)on(C(=O)N(c3ccc(Cl)cc3)C(C)C)c2=O)=NO1 (stereo not drawn)
3

Return reported Wheat plant response rating; argument: COCC(OC)n1c(=O)on(C(=O)N(c2ccc(F)cc2F)C(C)C)c1=O (stereo not drawn)
8

Return reported Wheat plant response rating; argument: CC(C)N(C(=O)n1oc(=O)n(CBr)c1=O)c1ccccc1
0
